study system: T1, OX40 on a functional cell line overexpressing OX40 (UniProt P43489 29-277, limits assumed)
T1 sequence (looked up): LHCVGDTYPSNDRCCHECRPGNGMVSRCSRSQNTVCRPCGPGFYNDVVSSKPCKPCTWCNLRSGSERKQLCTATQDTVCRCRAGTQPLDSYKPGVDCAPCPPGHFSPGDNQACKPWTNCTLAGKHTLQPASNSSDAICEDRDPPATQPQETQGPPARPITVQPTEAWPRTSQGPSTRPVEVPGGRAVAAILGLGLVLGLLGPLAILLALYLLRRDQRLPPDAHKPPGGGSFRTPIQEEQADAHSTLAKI
test summary: cell-based or functional assay
Checkbox rule: IL-8 secretion by OX40 overexpressing functional cell line, EC50 lower than 2 nM = rule met; IL-8 secretion by OX40 overexpressing functional cell line, EC50 not lower than 2 nM = rule not met.

# binder, label
data = [
    ("AH02916 humanized anti-human OX40 monoclonal antibody (recombinant human IgG1/kappa) (antibody, V domains shown) VH: QVQLVQSGAEVKKPGASVKVSCKASGYTFTDYSMHWVKQAPGQGLEWMGWISTETGEPTYADDFKGRVTITLDTSASTAYMELSSLRSEDTAVYYCARVRPWYLAVWGQGTLVTVSS VL: DIQMTQSPSSLSASVGDRVTITCRASQDISNYLNWYQQKPGKAVKLLIYYTSRLYSGVPSRFSGSGSGTDYTFTISSLQPEDIATYFCQQANTLPLTFGGGTKLEIK", "rule not met"),
    ("AH02921 humanized anti-human OX40 monoclonal antibody (recombinant human IgG1/kappa) (antibody, V domains shown) VH: QVQLVQSGPEVKKPGASVKVSCKASGYTFTDYSMHWVRQAPGQGLEWMGWISTETGEPTYADDFKGRFTITLDTSASTAYLEISSLRSEDTAVYFCARVRPWYLTVWGQGTLVTVSS VL: DIQMTQSPSSLSASVGDRVTITCRASQDISNYLNWYQQKPGKAPKLLIYYTSRLYSGVPSRFSGSGSGTDYTLTISSLQPEDIATYFCQQANTLPLTFGGGTKLEIK", "rule not met"),
    ("AH02913 humanized anti-human OX40 monoclonal antibody (recombinant human IgG1/kappa) (antibody, V domains shown) VH: QVQLVQSGPEVKKPGASVKVSCKASGYTFTDYSMHWVKQAPGQGLEWMGWISTETGEPTYADDFKGRVTITLDTSASTAYMELSSLRSEDTAVYFCARVRPWYLAVWGQGTLVTVSS VL: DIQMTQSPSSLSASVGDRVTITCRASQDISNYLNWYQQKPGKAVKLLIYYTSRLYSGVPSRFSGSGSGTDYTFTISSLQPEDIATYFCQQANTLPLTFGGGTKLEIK", "rule met"),
    ("AH02923 humanized anti-human OX40 monoclonal antibody (recombinant human IgG1/kappa) (antibody, V domains shown) VH: QVQLVQSGAEVKKPGASVKVSCKASGYTFTDYSMHWVRQAPGQGLEWMGWISTETGEPTYADDFKGRFTFTLDTSASTAYLELSSLRSEDTAVYYCARVRPWYLAVWGQGTLVTVSS VL: DIQMTQSPSSLSASVGDRVTITCRASQDISNYLNWYQQKPGKAVKLLIYYTSRLYSGVPSRFSGSGSGTDYTFTISSLQPEDIATYYCQQANTLPLTFGGGTKLEIK", "rule met"),
    ("AH02919 humanized anti-human OX40 monoclonal antibody (recombinant human IgG1/kappa) (antibody, V domains shown) VH: QVQLVQSGAEVKKPGASVKVSCKASGYTFTDYSMHWVKQAPGQGLEWMGWISTETGEPTYADDFKGRVTITRDTSASTAYLEISSLRSEDTAVYFCARVRPWYLAVWGQGTLVTVSS VL: DIQMTQSPSSLSASVGDRVTITCRASQDISNYLNWYQQKPGKAVKLLIYYTSRLYSGVPSRFSGSGSGTDYTLTISSLQPEDIATYYCQQANTLPLTFGGGTKLEIK", "rule met"),
]
